Quick reference for melting point among some compounds

Q: Provide melting point value for the following compound: CCCCOCCOc1ccc(-c2ccc3c(c2)C=C(C(=O)Nc2ccc([S+]([O-])CCc4nncn4CCC)cc2)CCN3CCC)cc1 (stereo not drawn) [Compound 52]
A: 93 to 101 °C

Q: Identify melting point associated with the compound CCCCOCCOc1ccc(-c2ccc3c(c2)C=C(C(=O)Nc2ccc([S+]([O-])Cc4cncn4CC(N)=O)cc2)CCN3CC(C)C)cc1 (stereo not drawn) [Compound 430]
A: 123 to 125 °C

Q: Tell me measured melting point for CCCCOCCOc1ccc(-c2ccc3c(c2)C=C(C(=O)Nc2ccc([S+]([O-])Cc4nccn4CCCC(=O)OCC)cc2)CCN3CC(C)C)cc1 (stereo not drawn) [Compound 414] please.
A: 134 to 136 °C

Q: Return melting point (reported value) for this compound: CCCCOCCOc1ccc(-c2ccc3c(c2)C=C(C(=O)Nc2ccc(C(O)c4cc(C)cc[n+]4[O-])c(OCC)c2)CCN3)cc1 (stereo not drawn) [Compound 11]
A: 110 to 115 °C

Q: Give a short answer stating reported melting point for CCCCOCCOc1ccc(-c2ccc3c(c2)C=C(C(=O)Nc2ccc(C(O)c4cc(C)cc[n+]4[O-])c(OCC)c2)CCN3CC(C)C)cc1 (stereo not drawn) [Compound 12] .
A: 108 to 110 °C

***
Q: For CCCCOCCOc1ccc(-c2ccc3c(c2)C=C(C(=O)Nc2ccc(OCc4nccn4CCC)cc2)CCN3CC(C)C)cc1 [Compound 25] , write its melting point.
A: 118 to 120 °C
